Field: half-life at 5 µM. Provide a value for each of the compounds that follow.
assay-summary: Stability in mouse hepatocytes
Format: in vitro ADME
test-settings: t1/2, Mouse Hepatocytes, Diastereoisomer A

half-life at 5 µM reported for this compound COC(=O)CCNC(=O)[C@@H]1OP(=O)(N[C@@H](Cc2cncs2)C(=O)OCc2ccccc2)OCC1(C)C (stereo partly drawn) : < 15 min

half-life at 5 µM reported for this compound COC(=O)CCNC(=O)[C@@H]1OP(=O)(OCCCOCc2ccccc2)OCC1(C)C (stereo partly drawn) : 16.8 min

half-life at 5 µM reported for this compound COC(=O)CCNC(=O)[C@@H]1O[P@](=O)(OCOC(=O)C(C)(C)C)OCC1(C)C (single isomer, unassigned) : < 15 min
